# experimental-system: T1, human MSLN-R2-his protein (human, UniProt Q13421 391-486)
# T1 construct: it is put last here; also called human MSLN-R2 protein; hMSLN-R2-his; not shown: His tag
# T1 sequence (Q13421 other isoform, or with tags, fused parts or gaps): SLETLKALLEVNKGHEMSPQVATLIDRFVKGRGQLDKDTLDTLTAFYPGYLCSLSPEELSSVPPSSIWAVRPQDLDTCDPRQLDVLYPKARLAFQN
# assay-remarks: ELISA on coated antigen, no antibody (blank, column 'none')
parameter-measured: OD450 (OD)
Reply numerically in OD, unit not repeated.

Reference set, count: 3
{"columns": ["binder", "OD450 / OD"],
 "data": [
  ["S009-F7.53.2 (antibody, human IgG1, kappa, V domains shown, Human-murine chimeric antibody, human IgG1 heavy and kappa light constant regions) VH: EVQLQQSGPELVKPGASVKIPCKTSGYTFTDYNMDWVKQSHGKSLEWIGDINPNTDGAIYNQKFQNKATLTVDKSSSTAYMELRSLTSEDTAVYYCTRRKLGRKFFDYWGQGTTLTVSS VL: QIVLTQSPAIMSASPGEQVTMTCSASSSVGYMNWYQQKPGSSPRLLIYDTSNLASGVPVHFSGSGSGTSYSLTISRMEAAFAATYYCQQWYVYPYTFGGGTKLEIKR", 0.07],
  ["S009-F7.48.1 (antibody, human IgG1, kappa, V domains shown, Human-murine chimeric antibody, human IgG1 heavy and kappa light constant regions) VH: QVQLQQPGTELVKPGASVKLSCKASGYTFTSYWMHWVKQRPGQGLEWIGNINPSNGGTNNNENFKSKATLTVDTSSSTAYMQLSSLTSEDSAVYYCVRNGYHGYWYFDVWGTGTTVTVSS VL: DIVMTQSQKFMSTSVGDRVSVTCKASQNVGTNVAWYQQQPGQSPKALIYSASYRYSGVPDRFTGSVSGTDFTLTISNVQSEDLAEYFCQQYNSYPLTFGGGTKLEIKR", 0.06],
  ["S009-F7.61.21 (antibody, human IgG1, kappa, V domains shown, Human-murine chimeric antibody, human IgG1 heavy and kappa light constant regions) VH: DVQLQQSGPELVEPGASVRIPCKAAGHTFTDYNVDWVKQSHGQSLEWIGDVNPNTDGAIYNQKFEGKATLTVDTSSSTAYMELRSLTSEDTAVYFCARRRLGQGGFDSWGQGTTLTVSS VL: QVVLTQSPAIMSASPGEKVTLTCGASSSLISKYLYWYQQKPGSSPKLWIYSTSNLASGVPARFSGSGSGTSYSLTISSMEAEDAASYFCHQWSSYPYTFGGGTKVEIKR", 0.07]
]}

Next binder, please.
Which OD450 value belongs to S009-F7.2.3 (antibody, human IgG1, kappa, V domains shown, Human-murine chimeric antibody, human IgG1 heavy and kappa light constant regions) VH: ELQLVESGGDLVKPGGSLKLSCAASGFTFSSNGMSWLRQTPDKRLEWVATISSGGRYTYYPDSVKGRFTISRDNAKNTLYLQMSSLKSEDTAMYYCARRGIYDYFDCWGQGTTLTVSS VL: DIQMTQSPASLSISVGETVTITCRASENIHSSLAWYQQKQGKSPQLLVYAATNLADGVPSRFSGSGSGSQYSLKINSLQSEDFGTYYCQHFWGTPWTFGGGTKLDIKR ?
0.06

Provenance of the data: patent US20250250357A1
